Listing of recorded IC50 by entry.
Test system: Plasmodium falciparum
Assay: Antiplasmodial activity against Plasmodium falciparum W2
Assay type: functional, organism-based

Input: Kindly state the measured IC50 obtained for CC1=C2OCCCCN3C(=O)C(O)(c4cc(Cl)ccc43)C2(C)SC1=O (centres undefined) with Plasmodium falciparum.
Output: > 20 µM

Input: What about "Cc1ccc2c(c1)C(=O)C(=O)N2CCCCBr" ?
Output: > 20 µM

Input: What about CC1=C2OCCCCN3C(=O)C(O)(c4cc(I)ccc43)C2(C)SC1=O (centres undefined) ?
Output: > 20 µM

Others:
Input: Kindly state the measured IC50 obtained for "O=C1C(=O)N(CCCCBr)c2ccc(F)cc21" with Plasmodium falciparum.
Output: > 20 µM

Input: What about CC1=C2OCCCCCCN3C(=O)C(O)(c4cc(Cl)ccc43)C2(C)SC1=O (centres undefined) ?
Output: 7.41 µM

Input: What about CC1=C2OCCCCN3C(=O)C(O)(c4cc(Br)ccc43)C2(C)SC1=O (centres undefined) ?
Output: > 20 µM

Input: What about "O=C1C(=O)N(CCCCCBr)c2ccccc21" ?
Output: > 20 µM

Input: What about CC1=C2OCCCCCN3C(=O)C(O)(c4ccccc43)C2(C)SC1=O (centres undefined) ?
Output: > 20 µM

Input: What about CC1=C2OCCCCCCN3C(=O)C(O)(c4cc(Br)ccc43)C2(C)SC1=O (centres undefined) ?
Output: 6.93 µM

Input: What about CC1=C(OCCN2C(=O)C(=O)c3cc(C)ccc32)C(C)SC1=O (centres undefined) ?
Output: > 20 µM

Input: What about "O=C1C(=O)N(CCCCBr)c2ccc([N+](=O)[O-])cc21" ?
Output: > 20 µM

Input: What about CC1=C2OCCCCCCN3C(=O)C(O)(c4cc(F)ccc43)C2(C)SC1=O (centres undefined) ?
Output: 14 µM

Input: What about CC1=C2OCCCCCN3C(=O)C(O)(c4cc(Cl)ccc43)C2(C)SC1=O (centres undefined) ?
Output: > 20 µM

Input: What about "O=C1C(=O)N(CCCCBr)c2ccc(I)cc21" ?
Output: > 20 µM

###

Tested on: Mycobacterium tuberculosis
Assay: Antitubercular activity against Mycobacterium tuberculosis H37Rv at 10 ug/ml by BACTEC radiometric susceptibility assay
Format: functional
measured parameter: inhibition at 10 µg/mL (%)
The response must be a number in % with no trailing unit.

Some compounds with recorded inhibition at 10 µg/mL:
Input: Find the recorded inhibition at 10 µg/mL belonging to CC1=C2OCCCCCCN3C(=O)C(O)(c4cc(Br)ccc43)C2(C)SC1=O (stereo not drawn) and report it.
Output: -0.5

Input: What about CC1=C2OCCCCCN3C(=O)C(O)(c4cc(I)ccc43)C2(C)SC1=O (stereo not drawn) ?
Output: -40.7

Input: What about CC1=C2OCCCCN3C(=O)C(O)(c4cc(C)ccc43)C2(C)SC1=O (stereo not drawn) ?
Output: -0.4

Input: What about CC1=C2OCCCCCN3C(=O)C(O)(c4ccccc43)C2(C)SC1=O (stereo not drawn) ?
Output: 32.6

Others:
Input: Find the recorded inhibition at 10 µg/mL belonging to CC1=C2OCCCCN3C(=O)C(O)(c4cc(F)ccc43)C2(C)SC1=O (stereo not drawn) and report it.
Output: 1.3

Input: What about CC1=C(O)SC(C)C1=O (stereo not drawn) ?
Output: -32.8

Input: What about CC1=C2OCCCCN3C(=O)C(O)(c4cc(I)ccc43)C2(C)SC1=O (stereo not drawn) ?
Output: 19.6

Input: What about CC1=C2OCCCCN3C(=O)C(O)(c4cc([N+](=O)[O-])ccc43)C2(C)SC1=O (stereo not drawn) ?
Output: -5.1

Input: What about CC1=C(OCCN2C(=O)C(=O)c3cc(I)ccc32)C(C)SC1=O (stereo not drawn) ?
Output: 42
